# subject.of.test: T1, recombinant human IL4Rα-his protein (in house made) (human, UniProt P24394 26-232, limits assumed)
# T1 construct: also called Human IL4Ra-his
# experimental.protocol: competitive ELISA, blocks biotin-IL4Rα-his binding to coated Benchmark (competitor)
Entries and their IC50
Lab book: enter the figure in nM, no units written.

// solved cases for IC50 follow
1) chimeric antibody C2C1A1A1 (antibody, human IgG4 S228P, kappa, V domains shown, Mouse variable domains on human IgG4/kappa; also called Chimeric C2C1A1A1; chC2C1A1A1) VH: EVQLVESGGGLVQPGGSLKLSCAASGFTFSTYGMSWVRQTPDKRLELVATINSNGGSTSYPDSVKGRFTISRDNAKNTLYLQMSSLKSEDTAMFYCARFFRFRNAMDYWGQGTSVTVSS VL: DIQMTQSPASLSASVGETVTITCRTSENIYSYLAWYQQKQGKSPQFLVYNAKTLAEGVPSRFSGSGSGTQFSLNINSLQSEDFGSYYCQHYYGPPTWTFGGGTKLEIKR :: 0.17
2) huB8G11F2B7G5E8-V4 (antibody, human IgG4 S228P, kappa, V domains shown, Humanized, human IgG4/kappa; also called huBSG11F2B7G5E8-V4) VH: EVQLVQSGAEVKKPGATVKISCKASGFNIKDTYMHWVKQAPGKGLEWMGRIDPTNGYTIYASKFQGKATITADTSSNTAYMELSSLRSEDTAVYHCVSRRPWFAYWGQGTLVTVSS VL: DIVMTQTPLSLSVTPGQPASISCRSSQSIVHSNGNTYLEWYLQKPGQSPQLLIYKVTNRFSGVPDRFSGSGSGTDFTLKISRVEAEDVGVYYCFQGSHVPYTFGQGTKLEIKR :: 1.24
3) huB8G11F2B7G5E8-V14 (antibody, human IgG4 S228P, kappa, V domains shown, Humanized, human IgG4/kappa; also called huBSG11F2B7G5E8-V14) VH: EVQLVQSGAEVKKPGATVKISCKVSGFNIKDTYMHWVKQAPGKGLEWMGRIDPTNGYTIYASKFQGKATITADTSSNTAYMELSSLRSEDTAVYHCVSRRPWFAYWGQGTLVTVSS VL: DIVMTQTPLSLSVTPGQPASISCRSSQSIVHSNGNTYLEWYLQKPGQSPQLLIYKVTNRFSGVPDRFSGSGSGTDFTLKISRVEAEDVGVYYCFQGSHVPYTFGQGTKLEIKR :: 0.76
4) huC2C1A1A1-V15 (antibody, human IgG4, V domains shown, Humanized, human IgG4/kappa) VH: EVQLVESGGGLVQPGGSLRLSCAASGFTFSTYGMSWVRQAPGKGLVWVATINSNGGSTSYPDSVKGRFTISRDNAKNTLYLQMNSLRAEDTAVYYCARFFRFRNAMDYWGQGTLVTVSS VL: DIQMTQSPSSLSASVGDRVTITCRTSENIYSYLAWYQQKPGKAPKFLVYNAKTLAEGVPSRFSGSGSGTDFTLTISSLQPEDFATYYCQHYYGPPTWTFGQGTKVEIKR :: 0.16

Next:
stdin: Need IC50, item mouse antibody B9D1D11F8D8 (antibody, V domains shown, Mouse hybridoma mAb) VH: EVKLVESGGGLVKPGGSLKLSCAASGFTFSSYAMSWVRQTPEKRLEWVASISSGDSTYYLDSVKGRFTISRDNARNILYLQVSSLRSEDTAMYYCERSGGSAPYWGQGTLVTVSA VL: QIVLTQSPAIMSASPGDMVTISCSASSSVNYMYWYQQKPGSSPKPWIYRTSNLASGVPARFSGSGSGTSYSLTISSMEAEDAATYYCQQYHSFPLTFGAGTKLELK
stdout: 0.02
